Exercise: for every item that follows, state its recorded viability, T/C.
- System: 855422-203-R-J1-PDC spheroids with HUVEC/MSC, viability
- TEST DESCRIPTION: Anticancer human tumor 855422-203-R-J1-PDC patient-derived bladder carcinoma cell line growth inhibition [PI3K]
- TEST SETTINGS: second compound 0.0316 µM; first compound 0.316 µM; stronger effect = lower value

>  <COMPOUND>
Cn1ncc(Cl)c1-c1cc(C(=O)NC(CN)Cc2cccc(F)c2)sc1Cl (stereo not given) + Cc1nc(NC(=O)N2CCCC2C(N)=O)sc1-c1ccnc(C(C)(C)C(F)(F)F)c1

>  <MEASURED PARAMETER>
viability, T/C

>  <REPORTED RESULT>
71%

$$$$

Below are some compounds; for each one, tell me its viability, T/C.
1. CCN1CCN(Cc2ccc(Nc3ncc(F)c(-c4cc(F)c5nc(C)n(C(C)C)c5c4)n3)nc2)CC1 + CC(Nc1ccc2c(c1)OCCn1cc(N3C(=O)OCC3C(F)F)nc1-2)C(N)=O
2. Cn1nccc1Nc1nccc(-c2ccn(C(CO)c3ccc(Cl)c(F)c3)c(=O)c2)n1 (stereo not given) + COc1c(OCCCN2CCOCC2)ccc2c3n(c(=NC(=O)c4cnc(N)nc4)nc12)CCN3
3. CC1(C)CCC(Nc2ncc(C(F)(F)F)c(-c3c[nH]c4c(P(C)(C)=O)c(C#N)ccc34)n2)CN1 (stereo not given) + CC(Nc1ncnc2nc[nH]c12)c1cc2cccc(Cl)c2c(=O)n1-c1ccccc1
4. C[C@@H](NC(=O)c1ncnc(N)c1Cl)c1ncc(C(=O)Nc2cc(C(F)(F)F)c(Cl)cn2)s1 + COc1c(OCCCN2CCOCC2)ccc2c3n(c(=NC(=O)c4cnc(N)nc4)nc12)CCN3

1. 49.7%
2. 53.6%
3. 25%
4. 68.8%

* * *

- Test system: 855422-203-R-J1-PDC spheroids with HUVEC/MSC, viability
- TEST DESCRIPTION: Anticancer human tumor 855422-203-R-J1-PDC cell line growth inhibition [PI3K];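 also: agents incubated with spheroids for one week before read-out; 100% = DMSO vehicle-treated control wells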
- TEST SETTINGS: second compound 3.16 µM; first compound 1 µM; stronger effect = lower value
Exercise: for every item that follows, state its recorded viability, T/C.
Answers are plain numbers, in %.

Below are some compounds; for each one, tell me its viability, T/C.
1. CC(Cn1ccc(-c2ccc(C#N)c(Cl)c2)n1)NC(=O)c1cc(C(C)O)[nH]n1 (stereo not given) + Cc1nc(NC(=O)N2CCCC2C(N)=O)sc1-c1ccnc(C(C)(C)C(F)(F)F)c1
2. Cn1nccc1Nc1nccc(-c2ccn(C(CO)c3ccc(Cl)c(F)c3)c(=O)c2)n1 (stereo not given) + Cc1nc(NC(=O)N2CCCC2C(N)=O)sc1-c1ccnc(C(C)(C)C(F)(F)F)c1
3. Cn1ncc(Cl)c1-c1cc(C(=O)NC(CN)Cc2cccc(F)c2)sc1Cl (stereo not given) + Cc1nc(NC(=O)N2CCCC2C(N)=O)sc1-c1ccnc(C(C)(C)C(F)(F)F)c1
4. C[C@@H](NC(=O)c1ncnc(N)c1Cl)c1ncc(C(=O)Nc2cc(C(F)(F)F)c(Cl)cn2)s1 + CC(Nc1ncnc2nc[nH]c12)c1cc2cccc(Cl)c2c(=O)n1-c1ccccc1
5. CCCS(=O)(=O)Nc1ccc(F)c(C(=O)c2c[nH]c3ncc(-c4ccc(Cl)cc4)cc23)c1F + Cc1nc(NC(=O)N2CCCC2C(N)=O)sc1-c1ccnc(C(C)(C)C(F)(F)F)c1

46.5
35.2
31.4
93.3
44

* * *

- System: 855422-203-R-J1-PDC spheroids with HUVEC/MSC, viability
- TEST DESCRIPTION: Anticancer human tumor 855422-203-R-J1-PDC cell line growth inhibition [PI3K];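 also: agents incubated with spheroids for one week before read-out; 100% = DMSO vehicle-treated control wells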
- TEST SETTINGS: second compound 3.16 µM; first compound 1 µM; stronger effect = lower value
Exercise: for every item that follows, state its recorded viability, T/C.

>  <COMPOUND>
CCCS(=O)(=O)Nc1ccc(F)c(C(=O)c2c[nH]c3ncc(-c4ccc(Cl)cc4)cc23)c1F + CC(Nc1ncnc2nc[nH]c12)c1cc2cccc(Cl)c2c(=O)n1-c1ccccc1

>  <REPORTED RESULT>
78.2%

$$$$
>  <COMPOUND>
C[C@@H](NC(=O)c1ncnc(N)c1Cl)c1ncc(C(=O)Nc2cc(C(F)(F)F)c(Cl)cn2)s1 + Cc1nc(NC(=O)N2CCCC2C(N)=O)sc1-c1ccnc(C(C)(C)C(F)(F)F)c1

>  <REPORTED RESULT>
42.8%

$$$$

Let us move to another entry and its viability, T/C.
Which viability, T/C is listed for C=CC(=O)N1CCN(c2nc(=O)n(-c3c(C)ccnc3C(C)C)c3nc(-c4c(O)cccc4F)c(F)cc23)C(C)C1 (stereo not drawn) + Cc1nc(NC(=O)N2CCCC2C(N)=O)sc1-c1ccnc(C(C)(C)C(F)(F)F)c1 ?
64%

* * *

- System: 855422-203-R-J1-PDC spheroids with HUVEC/MSC, viability
- TEST DESCRIPTION: Anticancer human tumor 855422-203-R-J1-PDC cell line growth inhibition [PI3K];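 also: agents incubated with spheroids for one week before read-out; 100% = DMSO vehicle-treated control wells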
- TEST SETTINGS: second compound 0.1 µM; first compound 0.001 µM; stronger effect = lower value
Cut-off 90% on viability, T/C: below means 1, at or above means -1.

As a guide, the following entries are already answered.
>  <COMPOUND>
CC(=O)c1c(C)c2cnc(Nc3ccc(N4CCNCC4)cn3)nc2n(C2CCCC2)c1=O + Cc1nc(NC(=O)N2CCCC2C(N)=O)sc1-c1ccnc(C(C)(C)C(F)(F)F)c1

>  <TARGET OR TEST SYSTEM>
855422-203-R-J1-PDC spheroids with HUVEC/MSC, viability

>  <CATEGORY>
-1

$$$$
>  <COMPOUND>
Cn1ncnc1[C@H]1c2n[nH]c(=O)c3cc(F)cc(c23)N[C@@H]1c1ccc(F)cc1 + Cc1nc(NC(=O)N2CCCC2C(N)=O)sc1-c1ccnc(C(C)(C)C(F)(F)F)c1

>  <TARGET OR TEST SYSTEM>
855422-203-R-J1-PDC spheroids with HUVEC/MSC, viability

>  <CATEGORY>
-1

$$$$
>  <COMPOUND>
Cn1ncnc1[C@H]1c2n[nH]c(=O)c3cc(F)cc(c23)N[C@@H]1c1ccc(F)cc1 + CC(Nc1ccc2c(c1)OCCn1cc(N3C(=O)OCC3C(F)F)nc1-2)C(N)=O

>  <TARGET OR TEST SYSTEM>
855422-203-R-J1-PDC spheroids with HUVEC/MSC, viability

>  <CATEGORY>
1

$$$$
>  <COMPOUND>
Cn1ncnc1[C@H]1c2n[nH]c(=O)c3cc(F)cc(c23)N[C@@H]1c1ccc(F)cc1 + CC(Nc1ncnc2nc[nH]c12)c1cc2cccc(Cl)c2c(=O)n1-c1ccccc1

>  <TARGET OR TEST SYSTEM>
855422-203-R-J1-PDC spheroids with HUVEC/MSC, viability

>  <CATEGORY>
-1

$$$$
>  <COMPOUND>
CC(C)n1nc(-c2ccc3oc(N)nc3c2)c2c(N)ncnc21 + CC(Nc1ccc2c(c1)OCCn1cc(N3C(=O)OCC3C(F)F)nc1-2)C(N)=O

>  <TARGET OR TEST SYSTEM>
855422-203-R-J1-PDC spheroids with HUVEC/MSC, viability

>  <CATEGORY>
1

$$$$
>  <COMPOUND>
CC(C)n1nc(-c2ccc3oc(N)nc3c2)c2c(N)ncnc21 + COc1c(OCCCN2CCOCC2)ccc2c3n(c(=NC(=O)c4cnc(N)nc4)nc12)CCN3

>  <TARGET OR TEST SYSTEM>
855422-203-R-J1-PDC spheroids with HUVEC/MSC, viability

>  <CATEGORY>
1

$$$$
>  <COMPOUND>
CC(=O)c1c(C)c2cnc(Nc3ccc(N4CCNCC4)cn3)nc2n(C2CCCC2)c1=O + CC(Nc1ccc2c(c1)OCCn1cc(N3C(=O)OCC3C(F)F)nc1-2)C(N)=O

>  <TARGET OR TEST SYSTEM>
855422-203-R-J1-PDC spheroids with HUVEC/MSC, viability

>  <CATEGORY>
1

$$$$
>  <COMPOUND>
CC(=O)c1c(C)c2cnc(Nc3ccc(N4CCNCC4)cn3)nc2n(C2CCCC2)c1=O + COc1c(OCCCN2CCOCC2)ccc2c3n(c(=NC(=O)c4cnc(N)nc4)nc12)CCN3

>  <TARGET OR TEST SYSTEM>
855422-203-R-J1-PDC spheroids with HUVEC/MSC, viability

>  <CATEGORY>
1

$$$$
>  <COMPOUND>
Cn1ncnc1[C@H]1c2n[nH]c(=O)c3cc(F)cc(c23)N[C@@H]1c1ccc(F)cc1 + COc1c(OCCCN2CCOCC2)ccc2c3n(c(=NC(=O)c4cnc(N)nc4)nc12)CCN3

>  <TARGET OR TEST SYSTEM>
855422-203-R-J1-PDC spheroids with HUVEC/MSC, viability

>  <CATEGORY>
1

$$$$

Moving on to the next compound.
Quick check: viability, T/C of CC(C)n1nc(-c2ccc3oc(N)nc3c2)c2c(N)ncnc21 + CC(Nc1ncnc2nc[nH]c12)c1cc2cccc(Cl)c2c(=O)n1-c1ccccc1 under 90%?
-1
